As shown below, each of these molecules has a reported fold changes relative to vehicle control value.
- testedOn: HeLa cell extract proteins (Homo sapiens, UniProt Q86VP6)
- Construct: endogenous in cells; host or cells: HeLa cell extract
- Sequence (Q86VP6 1-1230): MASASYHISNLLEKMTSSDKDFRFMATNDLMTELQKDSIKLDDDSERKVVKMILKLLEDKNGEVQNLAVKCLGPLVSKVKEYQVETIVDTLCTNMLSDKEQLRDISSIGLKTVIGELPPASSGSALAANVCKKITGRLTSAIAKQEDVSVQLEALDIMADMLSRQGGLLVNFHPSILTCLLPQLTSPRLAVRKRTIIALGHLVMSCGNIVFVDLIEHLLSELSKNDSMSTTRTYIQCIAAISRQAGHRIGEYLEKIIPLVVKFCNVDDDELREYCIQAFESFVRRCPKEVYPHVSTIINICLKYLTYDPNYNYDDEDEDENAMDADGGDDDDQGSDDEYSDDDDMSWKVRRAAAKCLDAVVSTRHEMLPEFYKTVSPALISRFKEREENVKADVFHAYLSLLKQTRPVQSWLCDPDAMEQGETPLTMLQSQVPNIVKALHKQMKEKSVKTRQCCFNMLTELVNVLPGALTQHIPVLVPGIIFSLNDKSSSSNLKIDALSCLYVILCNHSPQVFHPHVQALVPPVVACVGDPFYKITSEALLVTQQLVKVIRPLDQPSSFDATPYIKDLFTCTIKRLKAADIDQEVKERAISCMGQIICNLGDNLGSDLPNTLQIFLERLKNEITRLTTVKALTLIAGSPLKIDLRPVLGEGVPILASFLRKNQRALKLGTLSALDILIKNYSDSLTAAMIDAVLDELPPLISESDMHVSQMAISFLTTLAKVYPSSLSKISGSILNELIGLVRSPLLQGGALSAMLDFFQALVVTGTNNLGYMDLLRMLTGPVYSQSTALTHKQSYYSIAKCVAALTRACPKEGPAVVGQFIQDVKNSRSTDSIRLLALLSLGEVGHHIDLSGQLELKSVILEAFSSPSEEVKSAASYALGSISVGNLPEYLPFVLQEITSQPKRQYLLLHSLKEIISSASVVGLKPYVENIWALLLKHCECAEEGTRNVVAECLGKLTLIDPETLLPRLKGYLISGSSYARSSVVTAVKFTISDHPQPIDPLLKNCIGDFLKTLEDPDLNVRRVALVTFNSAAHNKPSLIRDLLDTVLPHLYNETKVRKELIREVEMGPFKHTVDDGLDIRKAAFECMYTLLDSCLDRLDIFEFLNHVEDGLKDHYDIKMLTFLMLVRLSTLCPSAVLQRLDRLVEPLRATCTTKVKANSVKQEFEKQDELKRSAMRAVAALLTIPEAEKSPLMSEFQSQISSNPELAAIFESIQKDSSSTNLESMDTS
- Assay type: binding
- testContext: protein CAND1; HeLa
// no unit, no text: just the number

Take a look at these entries with their results.
QUERY: Requested field: fold changes relative to vehicle control. Item: NCCCNc1ccc(C(=O)NC(CCC(=O)O)C(=O)O)cc1 (stereo not drawn)
RESULT: 0.77

QUERY: And then `Nc1nc2cccc(-c3ccccc3)c2n1Cc1ccc(Cl)c(Cl)c1` , what is it?
RESULT: 0.86

QUERY: And then `CCCCCCOc1cccc(Cc2cnc(N)nc2N)c1` , what is it?
RESULT: 1.95

QUERY: And then NCCOCCOCC(=O)Nc1nc2ncc(CNc3ccc(C(=O)NC(CCC(=O)O)C(=O)O)cc3)nc2c(=O)[nH]1 (stereo not drawn) , what is it?
RESULT: 1.11

QUERY: And then Nc1nc2c(c(=O)[nH]1)N(C=O)C(CNc1ccc(C(=O)N[C@@H](CCC(=O)O)C(=O)O)cc1)CN2 (stereo partly drawn) , what is it?
RESULT: 0.99

Further cases:
QUERY: Requested field: fold changes relative to vehicle control. Item: `CCCCCCOc1ccc(Cc2cnc(N)nc2N)cc1`
RESULT: 1.15

---

- Tested on: HYPOTHETICAL PROTEIN, CONSERVED (TB427.05.3680)
- protocolText: Multitargeted bead mixture competition
- Format: binding
- testContext: free ligand 100 μM, T. brucei lysate
As shown below, each of these compounds has a reported percentage of competition from bead binding value.
Report the value in % with no unit label.

QUERY: Request: percentage of competition from bead binding, test system HYPOTHETICAL PROTEIN, CONSERVED (TB427.05.3680), entry Nc1nc2cccc(-c3ccccc3)c2n1Cc1ccc(Cl)c(Cl)c1 [compound 3]
RESULT: 68

QUERY: And then CN(Cc1cnc2nc(N)nc(N)c2n1)c1ccc(C(=O)N[C@@H](CCC(=O)O)C(=O)O)cc1 [MTX, methotrexate] , what is it?
RESULT: 69

QUERY: And then Cc1ccc2nc(N)[nH]c(=O)c2c1Sc1ccncc1 [NTX, nolatrexed] , what is it?
RESULT: 38

Further cases:
QUERY: Request: percentage of competition from bead binding, test system HYPOTHETICAL PROTEIN, CONSERVED (TB427.05.3680), entry Nc1nc(O)c2c(CCc3ccccc3)c[nH]c2n1 [compound 5]
RESULT: 70

---

As shown below, each of these molecules has a reported fold changes relative to vehicle control value.
- testedOn: HeLa cell extract proteins (Homo sapiens)
- Construct: endogenous in cells; host or cells: HeLa cell extract
- Format: binding
- testContext: HeLa; protein PPP3CA
// no unit, no text: just the number

QUERY: Requested field: fold changes relative to vehicle control. Item: `CCCCCCOc1cccc(Cc2cnc(N)nc2N)c1`
RESULT: 1.13

Further cases:
QUERY: Requested field: fold changes relative to vehicle control. Item: `CCCCCCOc1ccc(Cc2cnc(N)nc2N)cc1`
RESULT: 1.1

---

- testedOn: HeLa cell extract proteins (Homo sapiens, UniProt P62333)
- Construct: endogenous in cells; host or cells: HeLa cell extract
- Sequence (P62333 whole entry): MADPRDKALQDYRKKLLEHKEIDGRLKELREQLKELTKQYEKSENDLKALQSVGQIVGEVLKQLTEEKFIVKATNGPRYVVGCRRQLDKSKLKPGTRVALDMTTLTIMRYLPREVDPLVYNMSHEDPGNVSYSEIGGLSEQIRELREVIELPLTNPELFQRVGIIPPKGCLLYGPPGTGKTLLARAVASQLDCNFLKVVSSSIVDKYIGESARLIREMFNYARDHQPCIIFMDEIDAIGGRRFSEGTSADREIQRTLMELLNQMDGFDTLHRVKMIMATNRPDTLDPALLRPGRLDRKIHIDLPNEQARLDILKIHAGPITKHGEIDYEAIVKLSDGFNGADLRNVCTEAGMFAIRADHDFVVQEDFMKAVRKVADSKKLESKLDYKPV
- Type: binding
- testContext: protein PSMC6; HeLa
readout: fold changes relative to vehicle control
// no unit, no text: just the number

Take a look at these entries with their results.
QUERY: Requested field: fold changes relative to vehicle control. Item: Nc1nc2cccc(-c3ccccc3)c2n1Cc1ccc(Cl)c(Cl)c1 [compound 3]
RESULT: 1.2

QUERY: And then NCCCNc1ccc(C(=O)NC(CCC(=O)O)C(=O)O)cc1 (stereo not drawn) [compound 7] , what is it?
RESULT: 0.96

QUERY: And then Nc1nc2c(c(=O)[nH]1)N(C=O)C(CNc1ccc(C(=O)N[C@@H](CCC(=O)O)C(=O)O)cc1)CN2 (stereo partly drawn) [LEU, leucovorin] , what is it?
RESULT: 0.84

QUERY: And then CCCCCCOc1ccc(Cc2cnc(N)nc2N)cc1 [compound 1] , what is it?
RESULT: 1.1

QUERY: And then CCCCCCOc1cccc(Cc2cnc(N)nc2N)c1 [compound 2] , what is it?
RESULT: 1.57

We next turn to a different molecule, shown below.
QUERY: Requested field: fold changes relative to vehicle control. Item: NCCOCCOCC(=O)Nc1nc2ncc(CNc3ccc(C(=O)NC(CCC(=O)O)C(=O)O)cc3)nc2c(=O)[nH]1 (stereo not drawn) [compound 6]
RESULT: 1.07

---

- Test system: glutamate 5′-kinase (LmjF.26.2710)
- protocolText: Multitargeted bead mixture competition
- Assay type: binding, Leishmania
- testContext: protein LMJF.26.2710 GLUTAMATE 5-KINASE, PUTATIVE
readout: fold change vs vehicle control
// no unit, no text: just the number

QUERY: Requested field: fold change vs vehicle control. Item: NCCCNc1ccc(C(=O)NC(CCC(=O)O)C(=O)O)cc1 (stereo not shown)
RESULT: 1

QUERY: And then Nc1nc2c(c(=O)[nH]1)N(C=O)C(CNc1ccc(C(=O)N[C@@H](CCC(=O)O)C(=O)O)cc1)CN2 (stereo partly shown) , what is it?
RESULT: 1.15

QUERY: And then NCCOCCOCC(=O)Nc1nc2ncc(CNc3ccc(C(=O)NC(CCC(=O)O)C(=O)O)cc3)nc2c(=O)[nH]1 (stereo not shown) , what is it?
RESULT: 1.06

We next turn to a different compound, shown below.
QUERY: Requested field: fold change vs vehicle control. Item: `Nc1nc2[nH]cc(CCc3ccc(C(=O)N[C@@H](CCC(=O)O)C(=O)O)cc3)c2c(=O)[nH]1`
RESULT: 0.14

---

- testedOn: HeLa cell extract proteins (Homo sapiens)
- Construct: endogenous in cells; host or cells: HeLa cell extract
- Type: binding
- testContext: HeLa; protein VKORC1
readout: fold changes relative to vehicle control
// no unit, no text: just the number

Take a look at these entries with their results.
QUERY: Requested field: fold changes relative to vehicle control. Item: Nc1nc2c(c(=O)[nH]1)N(C=O)C(CNc1ccc(C(=O)N[C@@H](CCC(=O)O)C(=O)O)cc1)CN2 (stereo partly drawn)
RESULT: 1.02

QUERY: And then `Nc1nc2cccc(-c3ccccc3)c2n1Cc1ccc(Cl)c(Cl)c1` , what is it?
RESULT: 1.03

QUERY: And then NCCOCCOCC(=O)Nc1nc2ncc(CNc3ccc(C(=O)NC(CCC(=O)O)C(=O)O)cc3)nc2c(=O)[nH]1 (stereo not drawn) , what is it?
RESULT: 1.04

QUERY: And then NCCCNc1ccc(C(=O)NC(CCC(=O)O)C(=O)O)cc1 (stereo not drawn) , what is it?
RESULT: 1.11

QUERY: And then `CCCCCCOc1cccc(Cc2cnc(N)nc2N)c1` , what is it?
RESULT: 1.05

Further cases:
QUERY: Requested field: fold changes relative to vehicle control. Item: `CCCCCCOc1ccc(Cc2cnc(N)nc2N)cc1`
RESULT: 0.98

Source of measurements: paper PMC6199744
